Origin of values: the OligoGym collection

Target Desc: Tau
Experiment: rat primary cortical neurons, FLIPR, 25 uM ASO
Bases are written 5' to 3'; sugars and linkages follow in the same order, as letters with counts (s phosphorothioate, o phosphodiester; PS: all linkages phosphorothioate). The collection does not say whether C is 5-methylated. l = locked nucleic acid (LNA); d = 2'-deoxy (DNA)
Quantity Name: calcium oscillation score

Quick one: calcium oscillation score of CCTTTTCTACTCTACTC (sugars l3 d12 l2, PS) ?
70.9 % of control

Quick one: calcium oscillation score of GATCTTAGGCTGGCC (sugars l3 d9 l3, PS) ?
8.13 % of control

Quick one: calcium oscillation score of CCAGGGACCCAATCTTCGAC (sugars l3 d14 l3, PS) ?
9.04 % of control

Quick one: calcium oscillation score of TGCAATTTCCTTTCCAT (sugars l3 d11 l3, PS) ?
67.6 % of control

Quick one: calcium oscillation score of TATTTCCAAATTCACTTTTA (sugars lldlldddddddddldldll, PS) ?
110 % of control

Quick one: calcium oscillation score of CACAAGTCCTTACAAA (sugars l3 d10 l3, PS) ?
194 % of control

====

Target Desc: Tau
Experiment: rat primary cortical neurons, FLIPR, 25 uM ASO
Bases are written 5' to 3'; sugars and linkages follow in the same order, as letters with counts (s phosphorothioate, o phosphodiester; PS: all linkages phosphorothioate). The collection does not say whether C is 5-methylated. l = locked nucleic acid (LNA); d = 2'-deoxy (DNA)
Quantity Name: calcium oscillation score

Quick one: calcium oscillation score of ACTCAAATCAATTCTCATTT (sugars l4 d12 l4, PS) ?
70.1 % of control

Quick one: calcium oscillation score of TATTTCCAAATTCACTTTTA (sugars llddlldddddddddlldll, PS) ?
123 % of control

Quick one: calcium oscillation score of ACCGAACTGCGAGGAGCAGC (sugars l3 d14 l3, PS) ?
0 % of control

Quick one: calcium oscillation score of CCATCTTAATTCATTTAATT (sugars l4 d13 l3, PS) ?
69.1 % of control

Quick one: calcium oscillation score of CGACTTGTACACGATC (sugars l3 d10 l3, PS) ?
48.9 % of control

Quick one: calcium oscillation score of CATGATTGTGGGCTT (sugars l3 d9 l3, PS) ?
0 % of control

Quick one: calcium oscillation score of TCCATTTTCACTGTTCA (sugars l3 d12 l2, PS) ?
87.7 % of control

Quick one: calcium oscillation score of ATCCAGCCATATTTCAACTC (sugars l3 d14 l3, PS) ?
28.2 % of control

Quick one: calcium oscillation score of ATCATATCCTAAGCAT (sugars l3 d9 l4, PS) ?
60.1 % of control

Quick one: calcium oscillation score of TCCATTCCCTCCAGAACCAT (sugars l3 d14 l3, PS) ?
61.9 % of control

Quick one: calcium oscillation score of CTCTGGTCAAGGCTTT (sugars l3 d10 l3, PS) ?
0 % of control

====

Provide the recorded calcium oscillation score for the entries that follow.
Target Desc: Tau
Experiment: rat primary cortical neurons, FLIPR, 25 uM ASO
Bases are written 5' to 3'; sugars and linkages follow in the same order, as letters with counts (s phosphorothioate, o phosphodiester; PS: all linkages phosphorothioate). The collection does not say whether C is 5-methylated. l = locked nucleic acid (LNA); d = 2'-deoxy (DNA)

# query: calcium oscillation score | item AATTTACACCCAAACCTAA (sugars l4 d11 l4, PS) | system: Tau
106 % of control

# query: calcium oscillation score | item GCAGAGGAACGTGTGG (sugars l3 d10 l3, PS) | system: Tau
0 % of control

# query: calcium oscillation score | item ATGACATTTTAAACCCC (sugars l3 d11 l3, PS) | system: Tau
54.9 % of control

# query: calcium oscillation score | item TCATTCAGCCAATCAC (sugars l4 d9 l3, PS) | system: Tau
52.4 % of control

# query: calcium oscillation score | item TCATAAATGACTATACTTAT (sugars l3 d14 l3, PS) | system: Tau
80.6 % of control

# query: calcium oscillation score | item AACTCATTTACCAATTATCT (sugars l4 d13 l3, PS) | system: Tau
67.3 % of control

# query: calcium oscillation score | item CCTCCTGGTTTATGATGGAT (sugars l3 d14 l3, PS) | system: Tau
58.3 % of control

# query: calcium oscillation score | item CCAGGGAGGCAGACACCTCG (sugars l3 d14 l3, PS) | system: Tau
10.2 % of control

# query: calcium oscillation score | item GGTGATATTGTCCAGGGACC (sugars l3 d14 l3, PS) | system: Tau
0 % of control

# query: calcium oscillation score | item GGGTGATATTGTCCAGGGAC (sugars l3 d14 l3, PS) | system: Tau
0 % of control

# query: calcium oscillation score | item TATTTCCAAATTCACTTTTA (sugars lldldlddddddddddllll, PS) | system: Tau
127 % of control

# query: calcium oscillation score | item CCCAGCACACAGGCAGCCAC (sugars l3 d14 l3, PS) | system: Tau
24.2 % of control

# query: calcium oscillation score | item TTTAGTTTTCCCACCCAA (sugars l2 d13 l3, PS) | system: Tau
69.4 % of control

# query: calcium oscillation score | item GTAGACTATTTGCA (sugars l3 d8 l3, PS) | system: Tau
105 % of control

# query: calcium oscillation score | item ACCCCACATTTGCAAACC (sugars l2 d13 l3, PS) | system: Tau
46.2 % of control

# query: calcium oscillation score | item TTACCCATCTTAATTCATTT (sugars l4 d14 l2, PS) | system: Tau
96.1 % of control

# query: calcium oscillation score | item GAAGGTGGCTCTGGGC (sugars l3 d10 l3, PS) | system: Tau
0 % of control

# query: calcium oscillation score | item CCAGCGTGATCTTCCA (sugars l3 d10 l3, PS) | system: Tau
98 % of control

# query: calcium oscillation score | item TCTTCCATCACTTCGAACTC (sugars l3 d14 l3, PS) | system: Tau
45.2 % of control

# query: calcium oscillation score | item TTCATGTTAAATCCCTC (sugars l4 d10 l3, PS) | system: Tau
103 % of control

# query: calcium oscillation score | item TGGATATAGTTAAGGC (sugars l3 d9 l4, PS) | system: Tau
106 % of control

# query: calcium oscillation score | item ACCACACACTCTGATAC (sugars l4 d11 l2, PS) | system: Tau
69 % of control

# query: calcium oscillation score | item TTTTTTAACTCCCAACTCT (sugars l4 d13 l2, PS) | system: Tau
95.7 % of control

# query: calcium oscillation score | item CATCAAATCCATGCAT (sugars l4 d8 l4, PS) | system: Tau
76.7 % of control

# query: calcium oscillation score | item CAAACAATCCATTTATATTC (sugars l4 d12 l4, PS) | system: Tau
55.5 % of control

# query: calcium oscillation score | item AGAGAGACCACATTATCATC (sugars l3 d14 l3, PS) | system: Tau
68.5 % of control

# query: calcium oscillation score | item TCCCAGCGTGATCTTCCATC (sugars ldlllddddddddddlldll, PS) | system: Tau
74.5 % of control

# query: calcium oscillation score | item TCGCTTCCAGTCCCGT (sugars l3 d10 l3, PS) | system: Tau
110 % of control

# query: calcium oscillation score | item TGATTGTGGGCTTAGG (sugars l3 d10 l3, PS) | system: Tau
2.71 % of control

# query: calcium oscillation score | item CACCCAAACTCCAAGTTC (sugars l4 d12 l2, PS) | system: Tau
53.9 % of control

# query: calcium oscillation score | item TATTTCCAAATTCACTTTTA (sugars lldlldddddddddllddll, PS) | system: Tau
114 % of control

# query: calcium oscillation score | item ATGAGCACTAACTCTAAGTA (sugars l3 d14 l3, PS) | system: Tau
4.76 % of control

# query: calcium oscillation score | item GTGATATTGTCCAGGG (sugars l3 d10 l3, PS) | system: Tau
14.8 % of control

# query: calcium oscillation score | item CTTAGCATCAGAGGTTTCAG (sugars l3 d14 l3, PS) | system: Tau
7.41 % of control

# query: calcium oscillation score | item AACTCTAAGTAGACCCTGGC (sugars l3 d14 l3, PS) | system: Tau
14.3 % of control

# query: calcium oscillation score | item ATTCCACACATAAACAAACA (sugars l4 d12 l4, PS) | system: Tau
63.8 % of control

# query: calcium oscillation score | item TCTGTCTTGGCTTTG (sugars l3 d9 l3, PS) | system: Tau
40.6 % of control

# query: calcium oscillation score | item TCTCTTAACTTTATTTTATT (sugars l4 d12 l4, PS) | system: Tau
84.9 % of control

# query: calcium oscillation score | item CCTCTTCCACTACAAG (sugars l2 d12 l2, PS) | system: Tau
57.8 % of control

# query: calcium oscillation score | item TCCCTAATCCCCAAAGA (sugars l2 d13 l2, PS) | system: Tau
53.9 % of control

# query: calcium oscillation score | item ATTTAGTTTTCCCACCCA (sugars l1 d15 l2, PS) | system: Tau
48 % of control

# query: calcium oscillation score | item AACACCTTTTAATTCATT (sugars l4 d10 l4, PS) | system: Tau
74.8 % of control

# query: calcium oscillation score | item ATTTCCAAATTCACTTTTAC (sugars llddlldddddddddlldll, PS) | system: Tau
122 % of control

# query: calcium oscillation score | item GATGTTGCCTAATGAGCCAC (sugars l3 d14 l3, PS) | system: Tau
4.52 % of control

# query: calcium oscillation score | item TTCTCACCAAACCCAGA (sugars l3 d12 l2, PS) | system: Tau
57.8 % of control
